- TESTED_ON: HDAC6 (Homo sapiens, UniProt Q9UBN7)
- Sequence (Q9UBN7 whole entry): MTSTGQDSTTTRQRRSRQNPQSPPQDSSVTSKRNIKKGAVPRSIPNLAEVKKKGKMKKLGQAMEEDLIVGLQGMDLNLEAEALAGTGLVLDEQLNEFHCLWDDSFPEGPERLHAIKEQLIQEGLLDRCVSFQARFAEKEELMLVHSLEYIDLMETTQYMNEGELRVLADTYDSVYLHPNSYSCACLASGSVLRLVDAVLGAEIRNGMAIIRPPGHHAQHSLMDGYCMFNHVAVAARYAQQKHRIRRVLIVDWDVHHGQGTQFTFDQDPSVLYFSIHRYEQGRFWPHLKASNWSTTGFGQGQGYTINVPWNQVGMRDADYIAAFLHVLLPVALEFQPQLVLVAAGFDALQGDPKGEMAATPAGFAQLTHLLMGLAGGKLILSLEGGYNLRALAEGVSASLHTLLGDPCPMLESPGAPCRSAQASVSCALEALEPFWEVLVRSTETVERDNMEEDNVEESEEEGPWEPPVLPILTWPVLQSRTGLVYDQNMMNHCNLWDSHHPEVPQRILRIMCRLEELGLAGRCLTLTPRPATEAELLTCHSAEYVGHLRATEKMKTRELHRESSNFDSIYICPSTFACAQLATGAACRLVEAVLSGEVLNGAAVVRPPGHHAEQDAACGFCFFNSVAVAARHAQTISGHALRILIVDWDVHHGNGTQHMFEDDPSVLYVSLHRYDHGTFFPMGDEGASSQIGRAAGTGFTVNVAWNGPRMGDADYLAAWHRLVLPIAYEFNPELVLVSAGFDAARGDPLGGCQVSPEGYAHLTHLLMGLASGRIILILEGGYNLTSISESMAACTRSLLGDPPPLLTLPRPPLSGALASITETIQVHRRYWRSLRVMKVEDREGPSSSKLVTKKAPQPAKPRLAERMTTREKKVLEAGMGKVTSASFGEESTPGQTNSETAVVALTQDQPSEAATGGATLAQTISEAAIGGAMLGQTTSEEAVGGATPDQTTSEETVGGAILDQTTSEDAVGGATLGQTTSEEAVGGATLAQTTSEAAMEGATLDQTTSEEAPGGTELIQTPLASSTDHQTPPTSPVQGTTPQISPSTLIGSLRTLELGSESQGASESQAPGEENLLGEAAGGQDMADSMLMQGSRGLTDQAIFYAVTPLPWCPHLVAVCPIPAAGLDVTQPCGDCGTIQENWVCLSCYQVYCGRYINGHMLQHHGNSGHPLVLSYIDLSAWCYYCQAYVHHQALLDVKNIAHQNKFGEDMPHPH
- EXPERIMENT_DESCRIPTION: In vitro histone deacetylase assay: enzymatic HDAC6 electrophoretic mobility shift assay
- TEST_PARAMETERS: full length human recombinant HDAC6, 1 nM enzyme, 2 μM peptide substrate RHKK(Ac)-NH2, 25° C.; read-out: Inhibitory Concentration (IC50) Values for Representative Compounds against HDAC6, Activity Range
pIC50: −log10 of the molar value.
QUANTITY_KIND: pIC50

>>> assay_value("COCCn1c(N2CCOc3cc(C(=O)NO)ccc3C2)nc2ccccc21")
"≥ 7.00"
>>> assay_value("COc1ccc(CN2Cc3ccc(C(=O)NO)cc3OC[C@@H]2C(C)C)cc1")
"≥ 7.00"
>>> assay_value("CCS(=O)(=O)N1Cc2ccc(C(=O)NO)cc2OC[C@@H]1C")
"≥ 7.00"

Consider the record given below.
Report value only: pIC50, HDAC6 (Homo sapiens, UniProt Q9UBN7), C[C@H]1CN(C)Cc2ccc(C(=O)NO)cc2O1
< 6.30
